Source listed as PubChem BioAssay (NCI).

tested on: SN12C renal; assay: NCI tumour cell line growth inhibition, 48 h
REPORTED METRIC: GI50

COMPOUND	OBSERVED VALUE
Cc1ccc(OCCOCCOCCOCCOc2ccc(C)n(O)c2=S)c(=S)n1O	0.0266 µM
COc1ccc(-c2nccn2-c2ccc(OC)cc2)cc1	20.8 µM
CC(C)(C)[Si](C)(C)OC1[C@@H](CNC(=O)NC(=O)CCl)O[C@@H](n2cnc3c(N)ncnc32)[C@H]1O[Si](C)(C)C(C)(C)C (stereo not given in full)	0.821 µM
COc1cc(/C=C\c2cc(OC)c(OC)c(OC)c2)cc(N/C=C\C(=O)c2c[nH]c3ccccc23)c1OC	2.44 µM
C=CC(=O)N1CN(C(=O)C=C)CN(C(=O)C=C)C1	20.7 µM
COc1cccc(/C=N/[N-]C(=O)c2ccncc2)c1[O-].COc1cccc(/C=N/[N-]C(=O)c2ccncc2)c1[O-].[O]=[U](=[O])([OH2+])[OH2+]	7.15 µM

Data request: Report GI50 for NNCCc1ccc(NC(=O)CCCc2ccc(C(=O)Nc3ccccc3N)cc2)cc1 please.
Data returned: 28 µM

Data request: Report GI50 for CC(C)c1[nH]nc2c1N=C(c1ccccc1Cl)c1cc([N+](=O)[O-])ccc1N2 please.
Data returned: 8.17 µM

Data request: Report GI50 for COc1cc2c(/C=N\N=C(N)N)c[nH]c2cc1C please.
Data returned: 11.2 µM

Data request: Report GI50 for O=C(Nc1cc(Cl)ccc1O)c1ccc(Nc2ccnc(C(F)(F)F)c2)cc1 please.
Data returned: 2.65 µM

* * *

system: RPMI-8226 leukemia; experiment: NCI tumour cell line growth inhibition, 48 h
REPORTED METRIC: TGI

Known TGI results, listed for orientation:
MOLECULE	TARGET OR TEST SYSTEM	TGI
Cc1cn(-c2cc(C(=O)Nc3cccc(-n4ccc5c(NC(=O)c6ccccc6)nccc54)c3)cc(C(F)(F)F)c2)cn1	RPMI-8226 leukemia	4.02 µM
CCCCn1cnc2c(c(CC#N)nn2-c2ccccc2)c1=N	RPMI-8226 leukemia	73.4 µM
O=C(O)C(SC1=NNC2(C(=O)N1)c1ccccc1-c1ccccc12)SC1=NNC2(C(=O)N1)c1ccccc1-c1ccccc12	RPMI-8226 leukemia	> 10 µM
Nc1ccc(-c2nc3ccccc3s2)cc1C(F)(F)F	RPMI-8226 leukemia	44.6 µM
CC(=O)c1cccn1/C=C(\OC(=O)OC(C)(C)C)c1ccc[nH]1	RPMI-8226 leukemia	> 100 µM
COc1ccc(C(CC(=O)c2ccc3c(c2)OCO3)c2c(O)c3ccccc3oc2=O)cc1OC (centres undefined)	RPMI-8226 leukemia	> 100 µM

Data request: Report TGI for CCN1CCCC(NCc2c3ccccc3c(CNC3CCCN(CC)C3)c3ccccc23)C1 (centres undefined) please.
Data returned: 54.3 µM

Data request: Report TGI for O=c1[nH]cnc(NC2C=C(CO)C(O)C2O)c1[N+](=O)[O-] (centres undefined) please.
Data returned: > 71.3 µM

Data request: Report TGI for CN(C(=O)c1ccc([N+](=O)[O-])cc1)c1ccccc1 please.
Data returned: > 100 µM

Data request: Report TGI for Clc1ccc(CSCCc2ccncc2)cc1Cl please.
Data returned: 40.3 µM

Data request: Report TGI for CC1CC(O)C(=O)C(O[C@@H]2C[C@@H]3CC[C@@H]4[C@H](CC[C@]5(C)C(C6=CC(=O)OC6)CC[C@]45O)[C@@]3(C=O)C[C@H]2O)O1 (some centres undefined) please.
Data returned: 0.246 µM

Data request: Report TGI for O=C(Nc1cc(Nc2ncccc2-c2ncnc3nc[nH]c23)ccc1F)c1cc(C(F)(F)F)cc(C(F)(F)F)c1 please.
Data returned: 6.4 µM

Data request: Report TGI for Cc1ccc([N+](=O)[O-])cc1N=NC(=O)NNc1cc([N+](=O)[O-])ccc1C please.
Data returned: > 100 µM

Data request: Report TGI for Cc1ccc(CC[P+](=O)CCc2ccc(C)nc2)cn1 please.
Data returned: > 100 µM

Data request: Report TGI for COC(=O)/C([Se]c1c(C)cc(C)cc1C)=C(/[Se]c1c(C)cc(C)cc1C)C(=O)OC please.
Data returned: > 100 µM
